The reported measurements were obtained from ChEMBL document CHEMBL1151469.

Tested on: Acanthamoeba hatchetti
assay-overview: Amoebicidal activity against Trophozoites of Acanthamoeba hatchetti 11DS in peptone yeast extract glucose medium at pH 7 after 1 hr by hemocytometer using trypan blue stain
Format: functional, organism-based
observable: EC50
Your answer should be a number followed by the unit of measure.

Give its EC50 value. Item: O=S(=O)(O)CCNCl
10.1 mM

* * *

Tested on: Acanthamoeba polyphaga
assay-overview: Amoebicidal activity against Trophozoites of Acanthamoeba polyphaga 5SU in peptone yeast extract glucose medium at pH 7 after 1 hr by hemocytometer using trypan blue stain in presence of 68 mM ammonium chloride
Type: functional, organism-based
observable: EC50 (mM)
Your answer should be a plain number; it is taken to be in mM.

Query for Acanthamoeba polyphaga: what EC50 does the record show for O=S(=O)(O)CCNCl ?
16.6

* * *

Test system: Acanthamoeba hatchetti
assay-overview: Amoebicidal activity against Trophozoites of Acanthamoeba hatchetti 11DS in peptone yeast extract glucose medium at pH 7 after 6 hrs by hemocytometer using trypan blue stain in presence of 68 mM ammonium chloride
Type: functional, organism-based
observable: pEC50
Note on units: pEC50 is unitless, being -log10 of a concentration expressed in mol/L.

Give its pEC50 value. Item: O=S(=O)(O)CCNCl
1.98
